target: AMPA receptor (human GluR1 flip/stargazin expressed in CHO-K1 cells) (Homo sapiens, UniProt P42261); construct: expressed in transfected cells; host or cells: CHO-K1; test: AMPA receptor function enhancing activity using calcium influx as index; type: cell-based; conditions: change in fluorescence level in 3 min, 100% = 3 mM glutamic acid + 300 μM cyclothiazide, 0% = 3 mM glutamic acid only
Sequence (P42261 19-906 isoform P42261-2 limits assumed): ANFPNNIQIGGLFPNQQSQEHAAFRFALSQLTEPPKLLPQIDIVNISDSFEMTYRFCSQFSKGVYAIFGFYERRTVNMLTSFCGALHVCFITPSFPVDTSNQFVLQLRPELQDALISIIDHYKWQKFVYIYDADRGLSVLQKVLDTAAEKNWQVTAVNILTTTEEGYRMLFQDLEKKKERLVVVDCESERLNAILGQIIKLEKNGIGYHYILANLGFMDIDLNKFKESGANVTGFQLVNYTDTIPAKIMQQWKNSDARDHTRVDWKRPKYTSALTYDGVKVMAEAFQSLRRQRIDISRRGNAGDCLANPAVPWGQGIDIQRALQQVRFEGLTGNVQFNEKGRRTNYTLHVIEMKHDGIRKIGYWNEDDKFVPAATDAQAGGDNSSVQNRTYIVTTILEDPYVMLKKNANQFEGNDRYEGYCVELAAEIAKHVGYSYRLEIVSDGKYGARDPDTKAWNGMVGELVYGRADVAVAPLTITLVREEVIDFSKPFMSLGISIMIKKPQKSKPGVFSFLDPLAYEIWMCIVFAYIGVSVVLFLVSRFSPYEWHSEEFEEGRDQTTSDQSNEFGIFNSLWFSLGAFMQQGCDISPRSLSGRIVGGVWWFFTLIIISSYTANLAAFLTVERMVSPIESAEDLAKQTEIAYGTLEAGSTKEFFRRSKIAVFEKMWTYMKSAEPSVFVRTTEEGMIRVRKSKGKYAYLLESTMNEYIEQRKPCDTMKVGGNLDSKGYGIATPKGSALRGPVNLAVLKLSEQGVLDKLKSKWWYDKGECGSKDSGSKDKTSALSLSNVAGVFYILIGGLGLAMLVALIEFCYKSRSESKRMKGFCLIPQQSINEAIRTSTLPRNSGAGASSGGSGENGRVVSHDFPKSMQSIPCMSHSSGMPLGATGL
Sequence (Q9Y698 whole entry partner): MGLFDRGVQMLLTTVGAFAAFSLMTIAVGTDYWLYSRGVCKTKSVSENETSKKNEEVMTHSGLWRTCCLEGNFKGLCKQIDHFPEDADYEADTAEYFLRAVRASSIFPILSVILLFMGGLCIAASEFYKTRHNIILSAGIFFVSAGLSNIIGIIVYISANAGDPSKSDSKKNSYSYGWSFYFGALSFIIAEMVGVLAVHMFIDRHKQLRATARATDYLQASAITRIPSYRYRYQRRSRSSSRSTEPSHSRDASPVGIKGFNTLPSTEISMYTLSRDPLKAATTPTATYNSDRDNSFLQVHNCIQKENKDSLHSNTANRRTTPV
METRIC_NAME: activity (%)

{"COMPOUND": "CS(=O)(=O)N[C@H]1COCC[C@@H]1COc1ccc(-c2ncc(Cl)cn2)cc1 [Example 284]", "UNIT_ABBREVIATION": "%", "activity (%)": 92}
{"COMPOUND": "CCS(=O)(=O)N[C@H]1CCOC[C@@H]1COc1ccc(-c2ncc(Cl)s2)cc1 (racemic) [Example 261]", "UNIT_ABBREVIATION": "%", "activity (%)": 92}
{"COMPOUND": "CCS(=O)(=O)N[C@H]1CCCO[C@@H]1COc1ccc(C2CC2)cc1 (racemic) [Example 4]", "UNIT_ABBREVIATION": "%", "activity (%)": 86}
{"COMPOUND": "O=S(=O)(N[C@H]1CCOC[C@@H]1COc1ccc(-n2cc(Cl)cn2)cc1)C1CC1 [Example 277]", "UNIT_ABBREVIATION": "%", "activity (%)": 90}
{"COMPOUND": "CCS(=O)(=O)N[C@H]1CCOC[C@@H]1COc1ccc(-n2cnc(C)c2)cc1 (relative stereo) [Example 139]", "UNIT_ABBREVIATION": "%", "activity (%)": 97}
{"COMPOUND": "O=S(=O)(N[C@H]1CCOC[C@@H]1COc1ccc(-c2ncc(Cl)s2)cc1)C1CC1 [Example 312]", "UNIT_ABBREVIATION": "%", "activity (%)": 91}
{"COMPOUND": "CS(=O)(=O)N[C@H]1COCC[C@@H]1COc1ccc(-n2cc(Cl)cn2)cc1 [Example 206]", "UNIT_ABBREVIATION": "%", "activity (%)": 74}
{"COMPOUND": "CS(=O)(=O)N[C@H]1CCCO[C@@H]1COc1ccc(C2CC2)cc1 (racemic) [Example 5]", "UNIT_ABBREVIATION": "%", "activity (%)": 78}
{"COMPOUND": "CCS(=O)(=O)N[C@H]1CCC(F)(F)C[C@@H]1COc1ccc(-n2cccn2)cc1 (relative stereo) [Example 130]", "UNIT_ABBREVIATION": "%", "activity (%)": 90}
{"COMPOUND": "CCS(=O)(=O)N[C@H]1CCCC[C@@H]1COc1ccc(C(C)=O)cc1 (relative stereo) [Example 89]", "UNIT_ABBREVIATION": "%", "activity (%)": 75}

(a) CCS(=O)(=O)N[C@H]1CCOC[C@@H]1COc1ccc(-n2cc(C)cn2)cc1 (relative stereo) [Example 134]
(b) CS(=O)(=O)N[C@@H]1CCOC[C@H]1COc1ccc(-c2ncc(Cl)cc2F)cc1 (single isomer, unassigned) [Example 382]
Asked: Lab note: check whether a or b shows the higher recorded activity (%). Bench note: the answer is the label of the chosen record.
Given back: a
